- ASSAYED_TARGET: Mitogen-activated protein kinase kinase kinase 5 (Homo sapiens, UniProt Q99683)
- Sequence (Q99683 whole entry): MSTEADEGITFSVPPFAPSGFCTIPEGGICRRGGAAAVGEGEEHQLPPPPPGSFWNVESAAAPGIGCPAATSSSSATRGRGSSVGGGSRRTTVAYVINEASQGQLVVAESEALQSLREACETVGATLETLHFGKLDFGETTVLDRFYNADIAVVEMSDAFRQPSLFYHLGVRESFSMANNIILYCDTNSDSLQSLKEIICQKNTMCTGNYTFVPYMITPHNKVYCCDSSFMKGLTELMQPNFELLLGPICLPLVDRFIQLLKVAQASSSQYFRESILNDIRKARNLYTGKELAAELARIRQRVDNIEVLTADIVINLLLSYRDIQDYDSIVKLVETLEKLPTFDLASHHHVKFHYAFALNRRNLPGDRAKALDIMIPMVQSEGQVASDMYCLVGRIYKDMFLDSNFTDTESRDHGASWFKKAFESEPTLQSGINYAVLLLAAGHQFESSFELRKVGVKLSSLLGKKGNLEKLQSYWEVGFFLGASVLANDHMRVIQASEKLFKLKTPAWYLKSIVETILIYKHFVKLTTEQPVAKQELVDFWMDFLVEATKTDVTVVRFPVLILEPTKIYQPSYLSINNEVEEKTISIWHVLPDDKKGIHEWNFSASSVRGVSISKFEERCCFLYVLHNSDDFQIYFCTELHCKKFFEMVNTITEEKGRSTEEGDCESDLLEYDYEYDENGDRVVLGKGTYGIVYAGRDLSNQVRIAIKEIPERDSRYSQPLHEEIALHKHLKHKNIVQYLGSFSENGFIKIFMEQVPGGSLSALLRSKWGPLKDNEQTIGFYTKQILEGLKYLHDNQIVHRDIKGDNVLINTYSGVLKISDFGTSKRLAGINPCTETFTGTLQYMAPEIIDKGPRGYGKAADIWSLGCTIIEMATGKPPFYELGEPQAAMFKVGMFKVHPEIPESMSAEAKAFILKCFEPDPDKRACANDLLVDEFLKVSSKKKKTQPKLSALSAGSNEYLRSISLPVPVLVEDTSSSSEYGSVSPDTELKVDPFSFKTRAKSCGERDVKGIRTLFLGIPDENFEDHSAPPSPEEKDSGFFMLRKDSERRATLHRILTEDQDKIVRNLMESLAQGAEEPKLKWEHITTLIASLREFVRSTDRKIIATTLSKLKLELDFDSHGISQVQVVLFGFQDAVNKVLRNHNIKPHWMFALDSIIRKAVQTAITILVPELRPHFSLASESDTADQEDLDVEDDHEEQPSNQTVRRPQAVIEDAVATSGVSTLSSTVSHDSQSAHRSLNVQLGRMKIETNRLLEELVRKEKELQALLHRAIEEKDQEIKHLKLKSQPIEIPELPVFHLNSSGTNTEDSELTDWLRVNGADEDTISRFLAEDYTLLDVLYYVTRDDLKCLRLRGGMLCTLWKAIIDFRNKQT
- METHOD_NOTES: Inhibition of human full length recombinant ASK1 using STK-Substrate-3 biotin as substrate in presence of ATP measured after 2 hrs by […] kinase assay
ENDPOINT_NAME: IC50 (nM)

# COMPOUND, ENDPOINT_NAME, UNIT_STRING, NUMERIC_RESULT
rows = [
    ("c1cc(-c2n[nH]c3ccc(-c4nncn4C4CCCC4)cc23)cc(-n2cnc(C3CC3)c2)c1", "IC50", "nM", 54.1),
]

P. COCn1cc(-c2cccc(-c3n[nH]c4ccc(-c5nncn5C(C)C)cc34)c2)cn1
Q. CC(C)n1cnnc1-c1ccc2[nH]nc(-c3cccc(NC(=O)c4ccc(C(F)(F)F)cc4)c3)c2c1
R. CC(C)n1cnnc1-c1ccc2[nH]nc(-c3cc(N4CCOCC4)cc(-n4cnc(C5CC5)c4)c3)c2c1
S. c1cc(-c2n[nH]c3ccc(-c4nncn4C4CC4)cc23)cc(-n2cnc(C3CC3)c2)c1
Please rank these compounds by IC50 in descending order. Form entry: ranked labels (order as requested). Q, R, S, P
(Q: 197 nM, R: 75.1 nM, S: 50 nM, P: 26.9 nM)

1. CC(C)n1cnnc1-c1ccc2[nH]nc(-c3cccc(C(=O)Nc4cnn(C)c4)c3)c2c1
2. CCOC(C)n1cc(-c2cncc(-c3n[nH]c4ccc(-c5nncn5C(C)C)cc34)c2)cn1 (stereo not drawn)
Please state the entry with greater IC50 among 1 and 2 . Lab note: record the label of whichever item you select. 2
(2: 277 nM, 1: 144 nM)

A. COc1ccc(-n2cnc(C3CC3)c2)cc1-c1n[nH]c2ccc(-c3nncn3C(C)C)cc12
B. CC(C)n1cnnc1-c1ccc2[nH]nc(-c3cccc(C(N)=O)c3)c2c1
C. CC(C)n1cnnc1-c1ccc2[nH]nc(-c3cccc(-n4cnc(C5CC5)n4)c3)c2c1
D. CC(C)n1cnnc1-c1ccc2[nH]nc(-c3cccc(S(C)(=O)=O)c3)c2c1
Reorder the items by IC50, least to greatest. Form entry: ranked labels (order as requested). C, B, A, D

---

- ASSAYED_TARGET: Mitogen-activated protein kinase kinase kinase 5 (Homo sapiens)
- METHOD_NOTES: Inhibition of ASK1 in human HEK293 cells transfected with AP1 assessed as inhibition of AP1-induced firefly luciferase activity preincubated for 1 hr followed by PMA stimulation and measured after 6 hrs by luciferase reporter assay
- Assay type: cell-based
ENDPOINT_NAME: IC50 (µM)

I. Cc1ccc(-c2n[nH]c3ccc(-c4nncn4C(C)C)cc23)cc1-n1cnc(C2CC2)c1
II. c1cc(-c2n[nH]c3ccc(-c4nncn4C4CCCC4)cc23)cc(-n2cnc(C3CC3)c2)c1
Kindly compare I with II and tell me which has the lower IC50 figure. Lab note: record the label of whichever item you select. II
(II: 5.5 µM, I: 8.73 µM)

I. CC(C)n1cnnc1-c1ccc2[nH]nc(-c3cccc(-c4cnn(C)c4)c3)c2c1
II. CCOC(C)n1cc(-c2cccc(-c3n[nH]c4ccc(-c5nncn5C(C)C)cc34)c2)cn1 (stereo unspecified)
Kindly compare I with II and tell me which has the lower IC50 figure. Lab note: record the label of whichever item you select. II
(II: 4.46 µM, I: 8.33 µM)
